Biological target: Casein kinase II subunit alpha (Homo sapiens)
Sequence (P68400 whole entry, the tested form may be a part): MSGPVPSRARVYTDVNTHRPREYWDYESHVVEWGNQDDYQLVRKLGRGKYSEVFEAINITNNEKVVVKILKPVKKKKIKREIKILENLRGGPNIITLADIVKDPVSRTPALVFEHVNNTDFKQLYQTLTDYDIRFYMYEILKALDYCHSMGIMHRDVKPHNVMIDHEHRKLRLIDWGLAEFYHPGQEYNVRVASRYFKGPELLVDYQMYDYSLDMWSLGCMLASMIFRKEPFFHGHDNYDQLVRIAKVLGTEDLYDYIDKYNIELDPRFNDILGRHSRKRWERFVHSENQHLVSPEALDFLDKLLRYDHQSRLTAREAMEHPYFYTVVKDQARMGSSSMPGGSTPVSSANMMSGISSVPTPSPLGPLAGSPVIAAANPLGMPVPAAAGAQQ
Assay: Inhibition of N-terminal GST-fusion protein tagged full length human CK2alpha1 (1 to 391 residues) expressed in baculovirus expression system co-expressing human His-tagged CK2beta using CK2tide as substrate incubated for 1 hrs in presence of ATP by off-chip mobility shift assay
pIC50: −log10 of the molar value.
Respond with satisfied for pIC50 values of 5 and above, not satisfied for values below.

Inquiry: Is the recorded value of pIC50 equal to or greater than 5 for this molecule? "NC(=O)c1nc(C(=O)O)nc2c1[nH]c(=O)n2-c1ccccc1"
Reply text: not satisfied

Inquiry: pIC50 >= 5 for "NC(=O)c1nc(-c2cccc(C(=O)O)c2)nc2c1[nH]c(=O)n2-c1ccccc1" ?
Reply text: satisfied

Inquiry: pIC50 >= 5 for "NC(=O)c1nc(-c2ccc(C(=O)O)cc2)nc2c1[nH]c(=O)n2-c1ccccc1" ?
Reply text: not satisfied

Inquiry: Tell me whether pIC50 is at least 5 here: "NC(=O)c1nc(-c2ccc(C(=O)O)cc2)nc2c1[nH]c(=O)n2-c1ccc([N+](=O)[O-])cc1"
Reply text: not satisfied

Inquiry: Given "NC(=O)c1nc(-c2cccc(C(=O)O)c2)nc2c1[nH]c(=O)n2-c1ccc(F)cc1" , state whether its pIC50 is at least 5.
Reply text: satisfied

Inquiry: For this molecule, is measured pIC50 5 or higher? "NC(=O)c1nc(CCCC(=O)O)nc2c1[nH]c(=O)n2-c1ccccc1"
Reply text: not satisfied

Inquiry: Check this molecule for pIC50 at or above 5: "NC(=O)c1nc(/C=C/C(=O)O)nc2c1[nH]c(=O)n2-c1ccccc1"
Reply text: satisfied

###

I'd be grateful if you could share measured IC50 for these entries.
Target: Casein kinase II subunit alpha (Homo sapiens)
Assay: Inhibition of N-terminal GST-fusion protein tagged full length human CK2alpha1 (1 to 391 residues) expressed in baculovirus expression system co-expressing human His-tagged CK2beta using CK2tide as substrate incubated for 1 hrs in presence of ATP by off-chip mobility shift assay

Inquiry: Consider the compound "NC(=O)c1nc(CC(=O)O)nc2c1[nH]c(=O)n2-c1ccccc1" tested on Casein kinase II subunit alpha (Homo sapiens); state its IC50.
Reply text: > 30 µM

Inquiry: Send back Casein kinase II subunit alpha (Homo sapiens) IC50 of "N#Cc1ccc(-n2c(=O)[nH]c3c(C(N)=O)nc(-c4ccc(C(=O)O)cc4)nc32)cc1" only.
Reply text: > 30 µM

Inquiry: State IC50 on Casein kinase II subunit alpha (Homo sapiens). Entry: "NC(=O)c1nc(-c2ccc(C(=O)O)cc2)nc2c1[nH]c(=O)n2-c1ccc(F)cc1"
Reply text: > 30 µM

Each recorded value in this set is attributed to ChEMBL document CHEMBL5385963.
